Target or system Protein deacetylase HDAC6 (Homo sapiens); metric IC50; compiled from varied reports.
Biological target: Protein deacetylase HDAC6 (Homo sapiens)
Sequence (Q9UBN7 whole entry): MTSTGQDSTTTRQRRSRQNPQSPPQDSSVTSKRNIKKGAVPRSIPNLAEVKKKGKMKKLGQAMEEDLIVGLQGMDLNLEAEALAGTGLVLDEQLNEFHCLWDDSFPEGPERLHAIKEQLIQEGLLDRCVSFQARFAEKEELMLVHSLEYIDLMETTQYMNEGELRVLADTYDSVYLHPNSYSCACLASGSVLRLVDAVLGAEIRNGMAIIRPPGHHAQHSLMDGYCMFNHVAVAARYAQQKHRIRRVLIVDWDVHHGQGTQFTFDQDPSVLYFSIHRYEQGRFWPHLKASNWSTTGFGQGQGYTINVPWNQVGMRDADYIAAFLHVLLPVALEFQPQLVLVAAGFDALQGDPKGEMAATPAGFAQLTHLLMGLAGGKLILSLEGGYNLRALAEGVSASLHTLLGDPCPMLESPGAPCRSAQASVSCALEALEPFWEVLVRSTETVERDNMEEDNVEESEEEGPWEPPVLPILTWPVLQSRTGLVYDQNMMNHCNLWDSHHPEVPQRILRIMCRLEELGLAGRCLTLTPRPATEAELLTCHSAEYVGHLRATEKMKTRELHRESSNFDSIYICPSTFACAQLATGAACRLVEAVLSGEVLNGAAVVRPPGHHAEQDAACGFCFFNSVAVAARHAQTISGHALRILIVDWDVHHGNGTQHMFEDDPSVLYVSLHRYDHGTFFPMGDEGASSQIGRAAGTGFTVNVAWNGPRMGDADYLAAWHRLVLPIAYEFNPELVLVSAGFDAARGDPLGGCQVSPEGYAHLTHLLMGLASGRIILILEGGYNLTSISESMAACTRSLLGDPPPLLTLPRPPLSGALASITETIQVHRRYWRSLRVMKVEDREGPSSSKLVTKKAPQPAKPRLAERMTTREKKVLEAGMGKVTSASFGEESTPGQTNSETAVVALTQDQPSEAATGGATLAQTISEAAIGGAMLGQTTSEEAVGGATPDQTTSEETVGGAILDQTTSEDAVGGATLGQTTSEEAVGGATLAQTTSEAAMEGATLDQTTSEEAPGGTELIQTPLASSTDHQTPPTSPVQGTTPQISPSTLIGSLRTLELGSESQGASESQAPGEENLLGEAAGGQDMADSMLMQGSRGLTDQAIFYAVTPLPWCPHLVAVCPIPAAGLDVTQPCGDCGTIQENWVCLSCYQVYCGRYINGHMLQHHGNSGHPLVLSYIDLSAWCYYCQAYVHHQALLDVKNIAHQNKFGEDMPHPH
# note: exactly 40 nM is not below, so it is criterion not met; use criterion met for IC50 strictly under it

| molecule | category |
| --- | --- |
| O=C(NO)c1ccc(Cn2cc(-c3ccoc3)nc(N3CCOCC3)c2=O)cc1 | criterion met |
| O=C(NO)c1cccc(-c2cn(CCc3ccccc3)nn2)c1 | criterion not met |
| COc1ccc([C@H]2[C@H](COC(=O)c3ccc(C(=O)NO)cc3)C(=O)N2c2cc(OC)c(OC)c(OC)c2)cc1O | criterion not met |
| O=C(CCCCCCn1cc(Nc2ncc3ccn(C4CCCC4)c3n2)cn1)NO | criterion met |
| COCCn1cc(-c2nc(Nc3ccc(NC(=O)CCCCCCC(=O)NO)cc3)nc3[nH]ccc23)cn1 | criterion met |
| O=C(CCCCCCOc1ccc(-c2nc3ccc(-c4nc5ccccc5[nH]4)cc3[nH]2)cc1)NO | criterion met |
| CC(C)[C@H]1NC(=O)C[C@H]2/C=C/CCSSC[C@@H](NC1=O)C(=O)N[C@H](C(C)C)C(=O)NCC(=O)O2 | criterion not met |
| O=C(/C=C/c1ccc(-c2ccc(O)cc2)cc1)NO | criterion not met |
| O=C(NO)c1cccc(S(=O)(=O)N[C@H](C(=O)Nc2ccccc2)c2ccccc2)c1 | criterion not met |
